# EXPERIMENT_NOTES: soluble on expression in E. coli; label from the status in PepcDB or PDB records

MONOMER_SEQUENCE	soluble on expression in E. coli
MGSDKIHHHHHHMLLSRVAESLYWINRYLERAENISRFVEVSESMALDCPPGSAEPWLPLVDASGDRNKFDESYLNKTPSDVANFLIKDRENPNSILSCICMARENARQIRDVITSEMWEQINSLYWSIQEGEVIWHQPAQEQLFEIRRGCQLFYGVTDATFSHDIAWNFSKLGRLIERADKTSRILDVKYFLLLPNLKELGGALDELQWISLLRSAGAYQMFRISEQGSITPNAIASFLLLDPIFPRSVRFCLEGINESLSKIQNSPVSKKPNDLECLIGLLLSKWSFVRIDHLIKDGLHEAIDSLQIDLNKLHDLIHGIYFRNDKKFDFESLQG	not soluble
MGHHHHHHSHMFLQYYLNEQGDRVYTLKKFDPMGQQTCSAHPARFSPDDKYSRHRITIKKRFKVLMTQQPRPVL	not soluble

---

# EXPERIMENT_NOTES: soluble on expression in E. coli; label from the status in PepcDB or PDB records

MONOMER_SEQUENCE	soluble on expression in E. coli
MGSDKIHHHHHHMIIPHRKPCIESQIKTSGNLDELKMIINDLLYSEKEIQILPSGNSAIHIASEIVSKLNPNSKTLIPDMGGWKGFETYSKLSGLSIEKLKTNLGVVNLEILEEKIKECSAKSLFLTSLAGYLAEQPLKEIAKICSENDCLFIEDVSGKIGGDCGYGDMVVCSTGSPKIINCEYGGFLGFSKKINENLKDKHLKEDIKNLLKTYKMPDIYGKMIEETLISKKSYELCIKFSNIVKENMENAYFKDSQGVSVFLSYENPKEIAKNIDKSVKLNNGKSILTMCPLYERILRKGVVLEIKKMDIHKISENEIYEILNFF	not soluble
MTAHLAAINGLRLKAECSNCGVRELCLSVGMSLTDTDRLSAIIPQPIKVKKGAALYHAGDPLQSLYAVRFGFFKTTISSQDGRDQLTGFQMSGELLGCDAISNDCHVCDAIALEDSEVCPIRFTHLERLSREMPSLQHNLNRALSKEIVRDHEMLLLLGNLNAEERMAAFLLNLSGRMFNRGYSATAFVLRMTREDIGSYLGLRLETICRAIANLRNLRIVSISGRQVEILDLNRLQALIHGCSYRAKSL	not soluble

---

# EXPERIMENT_NOTES: soluble on expression in E. coli; label from the status in PepcDB or PDB records

MONOMER_SEQUENCE	soluble on expression in E. coli
MTEFTLAHLSDPHLPLPPKTSLRHLASKRALGYLNWRRNRHLIHRRDILDTLVADLQAQQPDHIAVTGDLVNIALVNEFAPARQWLESVGPADRVSLVPGNHDAYVRSTAHRFAETFPDYISGDDATPGFPYLRRREAIAIIGVSSAVPTAPLRATGWLGAPQRAALEALLQSLAGERVFKVLLIHHPLQSRSRHKRLTDAADLIALLQRHPVDLVLHGHDHVHATVRIDTPFGAIPVVGVPSASAMNDRHRPSAAYNLFKISEGNDGWRCLEHHHHHH	not soluble
GMTDWQQALDRHVGVGVRTTRDLIRLIQPEDWDKRPISGKRSVYEVAVHLAVLLEADLRIATGATADEMAQFYAVPVLPEQLVDRLDQSWQYYQDRLMADFSTETTYWGVTDSTTGWLLEAAVHLYHHRSQLLDYLNLLGYDIKLDLFE	soluble
MSLDRRAQQRLALGEFLRARRRAAVRAELGLPDMPRSRTSGLRREEVAVQAGVSVTWYTWLEQGRDINPSRQVLDAIARALRLSPSEHDYVLALGGYTVDHAVTAGPPPPQIQRFLDALGGHPAFAITSDWGIAAWNTAYAALYPNIERVPPPDRNLLWLVFMDPAIRELLPDWDADSRRFLAEFRADAGPMVGEPSYTALVSRLSSESPHFATAWRAADIERFTSRERLFRHPVVGELRLEHHQVAPVDVPDIQIVAYLPEPGSVAAERLRRLVGQAGDTAREGHHHHHH	soluble
MKRKHLSGKSIGIVFGTFAPMHVGHVDLITKEKRANDNVLVIVSGSNTQKDRGTRTGLSLNRRFRNVREIFYDDELIVVDKLDEADMPPYPEGWVPWVNRVKDLITKNTDGPEKITFYVGESEYVIELNRYYPQAQVELIECSVINISATEIRDNPIENWRFITKPFRRHFTRKVLVVGSASGGKTTLVKDLARTYNAPCSLEYAREYQEKYNVRDDELDTNDYIHLLTDQYAQTAEIIDNGQHSWLIFADTNSTVTKVYIDYYLKENISQEEFDLLDRLYQVTQAREKWDLIFVILPKSNYVDDGSRDMTMADNRTRDWFTKHLLDLLSPFKDKIVILVENCDSDSFFADNYHYAKKTIKERLHIEI	not soluble
MKNDVISPEFDENGRPLRRIRSFVRRQGRLTKGQEHALENYWPVMGVEFSEDMLDFPALFGREAPVTLEIGFGMGASLVAMAKDRPEQDFLGIEVHSPGVGACLASAHEEGLSNLRVMCHDAVEVLHKMIPDNSLRMVQLFFPDPWHKARHNKRRIVQVPFAELVKSKLQLGGVFHMATDWEPYAEHMLEVMSSIDGYKNLSESNDYVPRPASRPVTKFEQRGHRLGHGVWDLMFERVK	soluble
MGSDKIHHHHHHMSNTKKGLATAGYNDDLAKLEEIFLPNFFYKKMQYYFSSSGLISNDVLFVHYTSTESALDIIREKRVLMRNALHMPDRQEVQDGFNIMDGLLSNENNHWVEFRNRIEVVLPGVVDRVMKIYSDHSHGRNDGTYFLSVLEHDESEKELGRLSMWRAFCGQSQPVAMFLRLPALSAVSQVLRIFFNPVLYKGKGQQHLELAEVIKNVENHKSFLERLDPDLVTSAIVSMILINVLCVKHKVFKEEREWRCVYLPKCFTSETSARLIEPGVEEQVGASRNVYKMPLNAAIDPVLSDIDLSKIFDSLIIGPSKSPYATYEVFCDELKKIGVSDVESKVRVTEIPVR	not soluble
MGSDKIHHHHHHMTGLSQSQASPMQIQPGNAAFNPWTDAALDTIRDVNQALTLYAEMRVVPAHHDAFLAAIDTVSAKLRVLPGFLSLALKQMSGDSTMVKNYPETYKGVLATAYLDGVAAGTQPYFYNLFVRFADGRAARAAGFEALFETHIHPLLHAMAPRGGDGPELLAYRAVLQSVVAGDRHAIYRGAEEIRSFLRRPVELPERETVTVENHVMVPEDKHAAWEPQVAILLQVAQDTFEPQDEPSGVGLPGARDNRYYRKALSTEILRNAHADGGLRAYIMHGVWESVWDHENSHLDPRFLAAAGPVGAAAVVGPVEPFYLTRRLVVAD	not soluble
MKVTITANAPLSAGAMAVKKEAENANVFAALLAHKQQELLPAGAETSLFQEESSKNKEPDWQNGGMETGAAGQPSSAEKKPAQIESLWLAPSIMTALAVAPISAAAGAPLLEADQQAEGKTSDHWTFPFVGAMNGEETIAAQPAADEAGFERAFITDGRKSGHIDAESGSPSSGKTGMFPPLLSDGDQRPFHEQGGNRTVVALPNEASPVRPAGEKDVSLPKRGDKGHGGEATPSFTTPPALLSPSSSSVGLVGEMPASAGGSVADQVAHALRSARWMKLPNGVMQLVIRLHPEHLGTVTVKMTEEGGKLAAKLLVANDAVKELLYAHLPQLAQQLDASSITVEKWTVWSDYDSPAMPPYSGNRQGGQQQGESRQKQKREPSSSFPFALDGIEADA	not soluble
GMQKTAFIWDLDGTLLDSYEAILSGIEETFAQFSIPYDKEKVREFIFKYSVQDLLVRVAEDRNLDVEVLNQVRAQSLAEKNAQVVLMPGAREVLAWADESGIQQFIYTHKGNNAFTILKDLGVESYFTEILTSQSGFVRKPSPEAATYLLDKYQLNSDNTYYIGDRTLDVEFAQNSGIQSINFLESTYEGNHRIQALADISRIFETK	soluble
MAKNKWQPTKHLGIYEYMTKKGKRYGIRVRYKQGNDYPEINKSGFETIAAAKVYKNNIENLKANKKEYVFTNEKLTLNTWFASYMEMFKKKNKSKDTIANKYSIYNNHLEIPFGNYYLTDISLDIYEDFLREKIKNGYANNSVKAMHKLMKSILNAAVRYEKLEKNRLQFAEIEQLEENEVIELKVLETDEFNVFISACRAFFTKYDFTMIYLAVWGMRRGEVMGVKLKNLTFDDAKQQVRITLDSTRTLRTPEGKGTKTPAGRRILLIDGEGYRLLKYSVEKAVSIAKDHGSVLHQDDFIFRNPTSNRPWAVTRMNDLLRKLEKEYDIKVYPHLLRHNFNTQALLAGANSNDLRKFIGHKNSSMTDHYSHATDEGREKLMNTMKDRLSGI	not soluble
